Protocol notes: Cytotoxicity: observable morphological changes in uninfected tissue culture cells
Setup conditions: rabbit, prk cells
# MCC per entry
Your answer is read as µg/mL, so omit the unit and give the number.

Check out these entries, answers already filled in.
// query Give the reported MCC for this compound. Nc1nc2c(ncn2CC(CO)OCP(=O)(O)O)c(=O)[nH]1 (racemic) [Guanin-9-yl, (RS)--CH2 OH]
// result 400

// query Give the reported MCC for this compound. Nc1ncc2ncn(CCOCP(=O)(O)O)c2n1
// result 200

// query Give the reported MCC for this compound. Nc1nc(N)c2ncn(CCOCP(=O)(O)O)c2n1
// result 200

Continuing:
// query Give the reported MCC for this compound. O=c1[nH]c(=O)n([C@H]2C[C@H](O)[C@@H](CO)O2)cc1C=CBr [5-(2-Bromovinyl)-2'-deoxyuridine, 5-(2-bromovinyl)-2' -deoxyuridine, reference compound]
// result 400

// query Give the reported MCC for this compound. O=P(O)(O)COC(CO)Cn1cnc2c(NO)ncnc21 (racemic) [6-Hydroxylaminopurin-9-yl, (RS)--CH2 OH]
// result 400

###

Protocol notes: Cytotoxicity: observable morphological changes in uninfected tissue culture cells
Setup conditions: rabbit, prk cells
# MCC per entry
Your answer is read as µg/mL, so omit the unit and give the number.

// query Give the reported MCC for this compound. Nc1ncnc2c1ncn2C[C@@H](CO)OCP(=O)(O)O [Adenin-9-yl, (S)--CH2 OH, reference compound]
// result 100

// query Give the reported MCC for this compound. Nc1nccc2c1ncn2C[C@@H](CO)OCP(=O)(O)O [3-Deazaadenin-9-yl, (S)--CH2 OH]
// result 40

// query Give the reported MCC for this compound. Cc1cn(C[C@@H](CO)OCP(=O)(O)O)c(=O)[nH]c1=O [Thymin-1-yl, (S)--CH2 OH]
// result 400

// query Give the reported MCC for this compound. Nc1nc(N)c2ncn(C[C@@H](CO)OCP(=O)(O)O)c2n1 [2-Aminoadenin-9-yl, (S)--CH2 OH]
// result 200

// query Give the reported MCC for this compound. NNc1ncnc2c1ncn2CC(CO)OCP(=O)(O)O (racemic) [6-Hydrazinopurin-9-yl, (RS)--CH2 OH]
// result 400

Continuing:
// query Give the reported MCC for this compound. Nc1nc2c(ncn2CCOCP(=O)(O)O)c(=O)[nH]1
// result 40

// query Give the reported MCC for this compound. Nc1ccn(C[C@@H](CO)OCP(=O)(O)O)c(=O)n1 [Cytosin-1-yl, (S)--CH2 OH]
// result 100

Recorded values, source patent US5142051A.
